- systemUnderTest: GABA-A receptor; alpha-1/beta-3/gamma-2 (Homo sapiens) (UniProt P14867+P18507+P28472)
- experimentalProtocol: It is the ratio of Ki value for alpha-1-beta-3-gamma-2 to that of alpha-5-beta-3-gamma-2
- Type: protein-complex assay
readoutName: Ratio
Please reply with the value in numeric form only.

C#Cc1ccc2c(c1)C(=O)N(C)Cc1c(C(=O)OC(C)(C)C)ncn1-2 67.3
CN1Cc2c(C(=O)OC(C)(C)C)ncn2-c2ccc(N=C=S)cc2C1=O 6.8
CCOC(=O)c1ncn2c1[C@@H]1CCCN1C(=O)c1cc(Br)ccc1-2 49
C#Cc1ccc2c(c1)C(=O)N1CCC[C@@H]1c1c(C(=O)OCC)ncn1-2 39
C#Cc1ccc2c(c1)C(=O)N1CCC[C@H]1c1c(-c3nc(C(C)C)no3)ncn1-2 15

Ask | Query: Ratio; subject: "CCOC(=O)c1ncn2c1CN(C)C(=O)c1cc(C#N)ccc1-2"
Reply | 1.67

Ask | Please look up its Ratio: "CN1Cc2c(C(=O)OC(C)(C)C)ncn2-c2ccc(Cl)cc2C1=O"
Reply | 26.6

Ask | Field request: Ratio | item: "CC(C)N(Cc1ncn2c1CN(C)C(=O)c1cc(Cl)ccc1-2)C(C)C"
Reply | 3.2

Ask | Ratio lookup needed for "CCOC(=O)c1ncn2c1[C@@H]1CCN1C(=O)c1cc(C#C[Si](C)(C)C)ccc1-2" , thanks.
Reply | 32

Ask | Reported Ratio for "CC(=O)c1ncn2c1CN(C)C(=O)c1cc(Cl)ccc1-2" : what is it?
Reply | 6.7

Ask | Give the measured Ratio of "CN1Cc2c(C(=O)OC(C)(C)C)ncn2-c2ccc(N3CCCC3)cc2C1=O" .
Reply | 0.63
